Source of measurements: the antibiotic and cytotoxicity screens of Wong et al. (2023)

- System: HepG2
- protocol_notes: cytotoxicity call (relative viability < 0.9)
- experimental_setup: 10 µM
The whole screen tested about 39,000 compounds, of which about 3,300 (8.5%) were called active. This excerpt belongs to a sample that is enriched for actives.
API: response.call in T (active), F (inactive)

Tell me the assay call for C[C@H](CO)N1C[C@H](C)[C@H](CN(C)Cc2ccc(Cl)c(Cl)c2)Oc2ccc(NC(=O)CCC(F)(F)F)cc2CC1=O please.
F

Tell me the assay call for C[C@@H]1CN([C@@H](C)CO)C(=O)Cc2cc(NC(=O)CCC(F)(F)F)ccc2O[C@@H]1CN(C)Cc1ccc(Cl)c(Cl)c1 please.
T

Tell me the assay call for COc1ccc(S(=O)(=O)Nc2ccc3c(c2)CC(=O)N([C@H](C)CO)C[C@@H](C)[C@H](CN(C)Cc2ccc(-c4ccccc4)cc2)O3)cc1 please.
T

Tell me the assay call for CS(=O)(=O)N1C[C@H]2CN(Cc3ccncc3)C(=O)[C@@H]2C1 please.
F

Tell me the assay call for C[C@@H]1CN([C@H](C)CO)C(=O)c2cc(NC(=O)CCC(F)(F)F)ccc2O[C@@H]1CN(C)Cc1ccc(Cl)c(Cl)c1 please.
F

Tell me the assay call for COc1ccc(NC(=O)Nc2ccc3c(c2)[C@H]2C[C@H](CC(=O)NCc4ccccn4)O[C@@H](CO)[C@H]2O3)cc1 please.
F

Tell me the assay call for C[C@H]1CN([C@@H](C)CO)C(=O)c2cc(NC(=O)Nc3cccc4ccccc34)ccc2O[C@H]1CN(C)S(=O)(=O)c1ccc(F)cc1 please.
F
